# experimental-system: KiSS-1 receptor (Rattus norvegicus, UniProt Q924U1)
# Sequence (Q924U1 whole entry): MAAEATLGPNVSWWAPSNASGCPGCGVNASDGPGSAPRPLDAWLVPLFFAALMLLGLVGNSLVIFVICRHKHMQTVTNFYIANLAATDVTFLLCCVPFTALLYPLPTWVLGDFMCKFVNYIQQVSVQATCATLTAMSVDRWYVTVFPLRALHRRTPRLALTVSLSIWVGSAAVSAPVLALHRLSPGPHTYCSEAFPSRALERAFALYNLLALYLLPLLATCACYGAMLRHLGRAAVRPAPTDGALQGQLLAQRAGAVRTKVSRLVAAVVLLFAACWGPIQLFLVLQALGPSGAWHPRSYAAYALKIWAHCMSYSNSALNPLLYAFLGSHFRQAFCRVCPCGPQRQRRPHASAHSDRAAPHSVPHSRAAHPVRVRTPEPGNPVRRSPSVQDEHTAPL
# assay-overview: Agonist activity at rat KISS1R transfected in CHO cells assessed as intracellular calcium flux after 24 hrs by functional FLIPR assay
pEC50: −log10 of the molar value. Where a SMILES comes first, the peptide text is derived from it. [ ]: non-standard residue; d: D form. Arg(Me) = CNC(=N)NCCC[C@H](N)C(=O)O; d4Pal = N[C@H](Cc1ccncc1)C(=O)O; azaGly = NNC(=O)O
property-label: pEC50

CNC(=N)NCCC[C@H](NC(=O)[C@H](CC(C)C)NC(=O)NNC(=O)[C@H](Cc1ccccc1)NC(=O)[C@@H]1CCCN1C(=O)[C@H](CC(N)=O)NC(=O)[C@@H](Cc1ccncc1)NC(=O)[C@H](N)Cc1ccc(O)cc1)C(=O)N[C@@H](Cc1c[nH]c2ccccc12)C(N)=O | 7.89
CNC(=N)NCCC[C@H](NC(=O)[C@H](CC(C)C)NC(=O)NNC(=O)[C@H](Cc1ccccc1)NC(=O)[C@H](CO)NC(=O)[C@H](CC(N)=O)NC(=O)[C@@H](Cc1ccncc1)NC(=O)[C@H](N)Cc1ccc(O)cc1)C(=O)N[C@@H](Cc1ccccc1)C(N)=O [KISS1-305] (H-[dY][d4Pal]NSF[azaGly]L[Arg(Me)]F-NH2) | 8.00

[P] CNC(=N)NCCC[C@H](NC(=O)[C@H](CC(C)C)NC(=O)NNC(=O)[C@H](Cc1ccccc1)NC(=O)[C@@H](NC(=O)[C@H](C)NC(=O)[C@@H](Cc1c[nH]c2ccccc12)NC(=O)[C@H](N)Cc1ccc(O)cc1)[C@@H](C)O)C(=O)N[C@@H](Cc1c[nH]c2ccccc12)C(N)=O
[Q] CNC(=N)NCCC[C@H](NC(=O)[C@H](CC(C)C)NC(=O)NNC(=O)[C@H](Cc1ccccc1)NC(=O)[C@H](CO)NC(=O)[C@@H](NC(=O)[C@@H](Cc1ccncc1)NC(=O)[C@H](N)Cc1ccc(O)cc1)[C@@H](C)O)C(=O)N[C@@H](Cc1c[nH]c2ccccc12)C(N)=O
Recorded pEC50 values differ for P and Q ; which one is higher? Use the label to indicate which entry you chose.
P
